SYSTEM NAME: PLK2 (human) (UniProt Q9NYY3)
Sequence (Q9NYY3 whole entry, looked up): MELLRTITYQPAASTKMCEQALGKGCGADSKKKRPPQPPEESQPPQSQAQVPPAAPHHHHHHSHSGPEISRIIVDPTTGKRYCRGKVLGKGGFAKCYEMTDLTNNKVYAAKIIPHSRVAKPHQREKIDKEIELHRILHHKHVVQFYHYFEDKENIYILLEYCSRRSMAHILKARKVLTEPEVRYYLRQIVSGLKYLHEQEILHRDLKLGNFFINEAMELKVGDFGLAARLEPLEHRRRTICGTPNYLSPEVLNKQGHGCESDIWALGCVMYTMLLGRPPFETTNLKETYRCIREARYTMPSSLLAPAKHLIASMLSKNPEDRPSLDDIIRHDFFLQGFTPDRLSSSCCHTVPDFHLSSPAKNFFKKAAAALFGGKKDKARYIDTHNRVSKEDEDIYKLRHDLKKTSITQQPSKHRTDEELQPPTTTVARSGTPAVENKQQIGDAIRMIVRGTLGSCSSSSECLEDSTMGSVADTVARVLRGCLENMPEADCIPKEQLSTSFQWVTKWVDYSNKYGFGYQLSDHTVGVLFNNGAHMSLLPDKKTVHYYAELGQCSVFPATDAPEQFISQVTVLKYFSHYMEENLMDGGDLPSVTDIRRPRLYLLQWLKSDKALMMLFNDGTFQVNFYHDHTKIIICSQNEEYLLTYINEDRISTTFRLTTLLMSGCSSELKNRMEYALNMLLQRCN
PROCEDURE SUMMARY: KINOMEscan competition binding
RECORDED CONDITIONS: compound 10.0 µM
Items are presented alongside their recorded kinase still bound, per cent of control.
Give the number; % is assumed, so skip it.

The following compounds have reported results that may help.
1. O=C1NC(=O)/C(=C/c2ccc3nccc(-c4ccncc4)c3c2)S1 : 29
2. CS(=O)(=O)N1CCN(Cc2cc3nc(-c4cccc5[nH]ncc45)nc(N4CCOCC4)c3s2)CC1 : 100
3. O=c1cc(N2CCOCC2)oc2c(-c3cccc4c3sc3ccccc34)cccc12 : 100

// kinase still bound, per cent of control value for N#CCNC(=O)c1ccc(-c2ccnc(Nc3ccc(N4CCOCC4)cc3)n2)cc1 : 51

Recorded result, CN(C)C/C=C/C(=O)Nc1ccc(C(=O)Nc2cccc(Nc3nccc(-c4cccnc4)n3)c2)cc1 , kinase still bound, per cent of control: 81

The recorded kinase still bound, per cent of control for entry CCN(CC)CCCCNc1ncc2c(n1)N(C)C(=O)N(c1c(Cl)c(OC)cc(OC)c1Cl)C2 equals 100

Record summary for COc1cc(N2CCN(C)CC2)ccc1Nc1ncc2c(n1)N(C)c1ccccc1C(=O)N2C : reported kinase still bound, per cent of control = 100

The compound identified as O=C(Nc1cccc(Nc2ncc(Br)c(NCCc3cnc[nH]3)n2)c1)N1CCCC1 registered its kinase still bound, per cent of control at 11

Entry COc1cc(C(=O)N2CCC(N3CCN(C)CC3)CC2)ccc1Nc1ncc2c(n1)N(C)c1ccccc1C(=O)N2C — recorded kinase still bound, per cent of control = 100

Noted for C=CC(=O)Nc1cc(-n2c(=O)ccc3cnc4ccc(-c5cn[nH]c5)cc4c32)ccc1C : its kinase still bound, per cent of control reads 89

Given item COCC(=O)NC/C=C/c1ccc2ncnc(Nc3ccc(Oc4ccc(C)nc4)c(C)c3)c2c1 , the value recorded as its kinase still bound, per cent of control is 100

Field kinase still bound, per cent of control (entry CNC(=O)c1cc(Oc2ccc(NC(=O)Nc3ccc(Cl)c(C(F)(F)F)c3)cc2)ccn1 ) reads 71

Item: COc1ccc(N(C(=O)Oc2c(C)cccc2C)c2ccnc(Nc3ccc(N4CCN(C)CC4)cc3)n2)c(OC)c1 | kinase still bound, per cent of control: 100

* * *

SYSTEM NAME: ABL2 (human)
PROCEDURE SUMMARY: KINOMEscan competition binding
RECORDED CONDITIONS: compound 10.0 µM
MEASUREMENT KIND: kinase still bound, per cent of control (%)
# unit: % | format: bare number

Record excerpt, results attached:
1. NC(=O)Nc1cc(-c2cccc(F)c2)sc1C(=O)N[C@@H]1CCCNC1 : 0.2
2. CCN(CC)CCCCNc1ncc2c(n1)N(C)C(=O)N(c1c(Cl)c(OC)cc(OC)c1Cl)C2 : 100
3. CNC(=O)c1ccc(Nc2cc(Nc3ccccc3S(=O)(=O)C(C)C)c3cc[nH]c3n2)nc1 : 9.4

Record summary for COCC(=O)NC/C=C/c1ccc2ncnc(Nc3ccc(Oc4ccc(C)nc4)c(C)c3)c2c1 : reported kinase still bound, per cent of control = 100

Lookup result for CNC(=O)c1cc(Oc2ccc(NC(=O)Nc3ccc(Cl)c(C(F)(F)F)c3)cc2)ccn1 ; measured kinase still bound, per cent of control: 35

The measured kinase still bound, per cent of control associated with COc1cc2ncnc(-n3nc(-c4ccccn4)nc3N)c2cc1OC reads 33
